Cited source for all entries: patent US20160159789A1

We begin with a simple list: items and their reported pIC50.
Biological target: human full-length MKNK1 (Homo sapiens, UniProt Q9BUB5, T385D)
Sequence (Q9BUB5 1-424 isoform Q9BUB5-2 T344D): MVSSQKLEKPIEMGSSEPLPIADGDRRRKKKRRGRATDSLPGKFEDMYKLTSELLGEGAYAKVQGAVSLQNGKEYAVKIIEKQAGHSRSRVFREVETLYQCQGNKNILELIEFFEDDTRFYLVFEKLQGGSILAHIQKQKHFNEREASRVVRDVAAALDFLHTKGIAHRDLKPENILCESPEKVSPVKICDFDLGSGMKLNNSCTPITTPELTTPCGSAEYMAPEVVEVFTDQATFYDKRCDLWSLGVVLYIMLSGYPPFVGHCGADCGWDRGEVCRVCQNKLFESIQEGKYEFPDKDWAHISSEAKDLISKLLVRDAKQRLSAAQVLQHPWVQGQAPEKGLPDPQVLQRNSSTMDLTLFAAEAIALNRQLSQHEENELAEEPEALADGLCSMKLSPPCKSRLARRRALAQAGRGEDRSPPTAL
Test: MKNK1 kinase high ATP assay (TR-FRET)
Details: high ATP (2 mM final), 15 min preincubation with enzyme, GST-MKNK1 (T344D)
pIC50: −log10 of the molar value.
measurement_name: pIC50

• CN1CCN(C(=O)[C@H]2CCc3c(sc4ncnc(Nc5cc6cn[nH]c6nc5O)c34)C2)CC1 = 8.68
• COc1nc2[nH]ncc2cc1Nc1ncnc2[nH]c(C(=O)N3CCOC[C@H]3C)c(Br)c12 = 8.08
• CN(CC(C)(C)O)C(=O)[C@H]1CCc2c(sc3ncnc(Nc4cc5cn[nH]c5cn4)c23)C1 = 7.95
• CC(C)NC(=O)C1CCc2c(sc3ncnc(Nc4cnc5[nH]ncc5c4)c23)C1 (racemic) = 7.98
• CN(C)CCCNC(=O)c1[nH]c2ncnc(Nc3cnc4[nH]ncc4c3)c2c1Br = 7.53
• O=C(c1nc2c(Nc3cnc4[nH]ncc4c3)ncnc2s1)N1CCCCC1 = 6.77
• O=C(c1[nH]c2ncnc(Nc3cc4cn[nH]c4cn3)c2c1Br)N1CCCCC1 = 7.80
• COc1nc2[nH]ncc2cc1Nc1ncnc2[nH]c(C(=O)N(C)CCN(C)C)c(Br)c12 = 7.92
• O=C([C@H]1CCc2c(sc3ncnc(Nc4cnc5[nH]ncc5c4)c23)C1)N1CCC1 = 7.32
• COc1nc2[nH]ncc2cc1Nc1ncnc2sc3c(c12)CC[C@H](C(=O)N1CC2(COC2)C1)C3 = 9.15
• C[C@@H]1COCCN1C(=O)c1[nH]c2ncnc(Nc3cnc4[nH]ncc4c3)c2c1Br = 6.84
• COc1nc2[nH]ncc2cc1Nc1ncnc2sc3c(c12)CC[C@H](C(=O)N1CCC1)C3 = 8.66
• COc1nc2[nH]ncc2cc1Nc1ncnc2[nH]c(C(=O)N(C)CCCN(C)C)c(Br)c12 = 8.17
• CN(C)[C@@H]1CCN(C(=O)[C@H]2CCc3c(sc4ncnc(Nc5cnc6[nH]ncc6c5)c34)C2)C1 = 8.34
• O=C(O)c1[nH]c2ncnc(Nc3cc4cn[nH]c4cn3)c2c1Br = 8.55
• O=C(O)c1cc2c(Nc3cc4cn[nH]c4cn3)ncnc2[nH]1 = 7.62
